experiment: growth effects on S. cerevisiae YJM789 – YJM789 clinical isolate, OD600, 24 h, basal, primary screen (AID 1089);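 further: growth of clinical yeast isolate S. cerevisiae YJM 789 seeded 1000 cells per well; test concentration not given here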
condition_details: higher = more signal, called active from +8 up or from −8 down
value_type: z-score
Number only, please.

# example entries with known answers
molecule	z-score
O=C1OCCC=C[C@H]2OC34C=CCN(CCN5CCOCC5)C(=O)[C@H]3N(CCO)C(=O)[C@@H]4C12 (some centres undefined)	-0.698
CC(C)N1C(=O)c2ccccc2[C@](C)(C(=O)NC2CC2)[C@@H]1c1ccc(CO)cc1	-0.0975

// `COCCOC(=O)N1C(=O)[C@@]2(c3ccccc31)[C@H](C(=O)N1CCCCCCC1)[C@H]1C(=O)O[C@H](c3ccccc3)[C@H](c3ccccc3)N1[C@@H]2c1ccccc1OCCO` : z-score value = 0.749

// `O=C1c2ccccc2[C@](Cc2ccccc2I)(C(=O)O)[C@H](c2ccc(CO)cc2)N1Cc1ccccc1C(F)(F)F` : z-score value = 0.817

----------
system_tested: Follistatin (Homo sapiens)
experiment: FST protein binding to printed compounds – biochemical, small-molecule microarray, 635/667 nm fluorescence, primary screen (AID 1132)
condition_details: 635 nm fluorescence, higher = more signal
value_type: composite z-score

# example entries with known answers
compound	composite z-score
CN(C)CCCC[C@@H]1NC(=O)[C@@H]2C[C@H](C(=O)NCCCCCN)[C@H](c3ccc(O)cc3)N2C1=O	-0.126
CCCCN1CC=CC23O[C@@H]4C=CCCOC(=O)C4[C@H]2C(=O)N(CCCO)[C@@H]3C1=O (some centres not stated)	0.274
CC1CC/C=C\[C@H]2OC34C=CCN(c5ccc6ccccc6c5)C(=O)[C@H]3N(CCCCCO)C(=O)[C@@H]4C2C(=O)O1 (some centres not stated)	-1.02
COc1ccc(C(=O)Nc2cccc(CN3C(=O)[C@@]4(O[C@@H](CCn5cc([C@H](O)c6ccccc6)nn5)[C@H]([Si](C)(C)c5ccc(OC)cc5)[C@H]4C)c4ccccc43)c2)cc1	1.19
CC(C)(C)OC(=O)CC[C@]1(C(=O)NCC(O)CO)N=C(c2ccc(OCCCO)cc2)O[C@H]1c1ccccc1CN=[N+]=[N-] (some centres not stated)	0.662
C=CC[C@]1(C(=O)O)N=C(c2ccc(OCCCO)cc2)O[C@H]1c1ccccc1CN=[N+]=[N-]	0.349

API: the following record is the query input.
// O=C1C2C=CC(C(O)c3ccc(-c4ccccc4)s3)N(Nc3ccccc3F)C2C(=O)N1c1ccccc1 (configuration not stated) : composite z-score value = 1.18

----------
Entries and their measured z-score follow.
experiment: Pseudomonas biofilm growth suppression – PAO1 strain, BacTiter-Glo luminescence, LB-PBS, primary screen (AID 1144)
condition_details: P. aeruginosa PAO1 biofilm, 12 h, higher = more signal
Number only, please.

molecule	z-score
Cc1c(NC(=O)/C(C#N)=C/C=C/c2ccccc2)c(=O)n(-c2ccccc2)n1C	0.374
O=[N+]([O-])c1ccc(C[n+]2ccc(CCCO)cc2)o1	0.0757
O=C(NCC(F)(F)F)[C@@H]1c2ccccc2C(=O)N(Cc2ccccc2)[C@H]1c1ccc(CO)cc1	-0.0791
COC(=O)[C@@]1(Cc2ccc(F)cc2)[C@H]2c3cc(C(=O)N(C)C)n(Cc4ccccn4)c3C[C@H]2CN1C(=O)c1ccccc1	-0.75
C=CCC(OC(C)=O)[C@@H]1[C@@H](N(Cc2ccc(-c3ccccc3)cc2)C(=O)c2ccc(C)cc2)c2cc(OCCCO)ccc2N1C(=O)c1ccc2ccccc2n1 (stereo partly drawn)	-1.41

// `O=c1cccc(-c2cccc3ccccc23)o1` : z-score value = -0.469

// `[N-]=[N+]=NCc1ccccc1C[C@]1(C(=O)NCCN2CCOCC2)N=C(c2ccc(OCCCO)cc2)O[C@H]1c1ccccc1CN=[N+]=[N-]` : z-score value = -1.12

// `COc1ccc([Si](C)(C)[C@H]2[C@H](CCO)O[C@@]3(C(=O)N(Cc4ccccc4)c4ccc(N5C(=O)COc6ccccc65)cc43)[C@@H]2C)cc1` : z-score value = -0.539

// CC(C)(C)OC(=O)CC[C@@]1(C(=O)NCC(O)CO)N=C(c2ccc(OCCCO)cc2)O[C@@H]1c1ccccc1 (stereo partly drawn) : z-score value = -1.15

// CCN(CC)c1ccc(N2CC=CC34O[C@@H]5/C=C\CCCOC(=O)C5[C@H]3C(=O)N(CCCO)[C@@H]4C2=O)cc1 (stereo partly drawn) : z-score value = 2.24

// `CCCCCCC#C[Si](O[C@H](c1ccccc1)c1cn([C@H](C)c2ccccc2)nn1)(C(C)C)C(C)C` : z-score value = 0.121

// O=C1C2C=CC(C(O)C3CC=CCC3)N(n3cnnc3)C2C(=O)N1Cc1ccccc1 (stereo not drawn) : z-score value = 0.356

// `O=c1cccc(-c2ccccc2)o1` : z-score value = 1.55

// `[N-]=[N+]=NCc1ccccc1[C@@H]1OC(c2ccc(OCCCO)cc2)=N[C@]1(Cc1ccccc1N=[N+]=[N-])C(N)=O` : z-score value = -0.089

// `C=C(C(=O)CC[C@@H](OC(=O)c1cccnc1)c1ccc(OCCO)cc1)C(C)C` : z-score value = 0.118

// `COc1ccc([Si](C)(C)[C@@H]2[C@@H](CCO)O[C@]3(C(=O)N(Cc4cccc(N(C=O)c5ccccc5)c4)c4ccccc43)[C@H]2C)cc1` : z-score value = 0.465

// `O=C1c2ccccc2[C@](Cc2ccccc2I)(C(=O)O)[C@H](c2ccc(CO)cc2)N1Cc1ccccc1C(F)(F)F` : z-score value = -0.99

// `CC(C)C[C@@H]1NC(=O)[C@@H]2C[C@H](C(=O)NCCCCN(C)C)[C@H](c3ccc(O)cc3)N2C1=O` : z-score value = -0.0311

// CN1C(=O)C2C(C1=O)C1C=C(c3ccc(CO)cc3)C2C(C2CC2)N1Cc1sc2ccccc2c1Cl (stereo not drawn) : z-score value = 0.277

// CC(=O)n1cc(C(O)C2C=CC3C(=O)N(c4ccccc4)C(=O)C3N2Nc2ccc(C#N)cc2)c2ccccc21 (stereo not drawn) : z-score value = -0.935

// CN1C(=O)C2C=CC(C(O)C(C)(C)C)N(Nc3ccccc3)C2C1=O (stereo not drawn) : z-score value = -0.101

// `CCCC[C@@H]1C[C@H]1[C@@H](NC(=O)c1ccccc1)c1ccc(-c2ccccc2)cc1` : z-score value = 0.257

// `CO[C@H]1O[C@H](CO)[C@@H](OC(=O)Nc2ccc3c(c2)OCO3)[C@H](OC(=O)Nc2ccc3c(c2)OCO3)[C@H]1OC(=O)Nc1ccc2c(c1)OCO2` : z-score value = -0.416

// `C=CCN1C(=O)[C@]2(Cc3ccccc31)N=C(c1ccc(OCCCO)cc1)O[C@@H]2c1ccccc1` : z-score value = -0.324

// `Cc1ccc(S[C@]2(C(=O)NCc3ccccc3)CC(=O)N(Cc3cc(C(F)(F)F)cc(C(F)(F)F)c3)[C@@H]2c2ccc(CO)cc2)cc1` : z-score value = 0.315

// O=C1C2C=CC(C(O)c3ccc(Br)cc3)N(n3cnnc3)C2C(=O)N1Cc1ccccc1 (stereo not drawn) : z-score value = 0.913
